Where these numbers come from: patent US11685729B2

Tested System: C5AR1 (Homo sapiens (Human), UniProt P21730)
Sequence (P21730 whole entry): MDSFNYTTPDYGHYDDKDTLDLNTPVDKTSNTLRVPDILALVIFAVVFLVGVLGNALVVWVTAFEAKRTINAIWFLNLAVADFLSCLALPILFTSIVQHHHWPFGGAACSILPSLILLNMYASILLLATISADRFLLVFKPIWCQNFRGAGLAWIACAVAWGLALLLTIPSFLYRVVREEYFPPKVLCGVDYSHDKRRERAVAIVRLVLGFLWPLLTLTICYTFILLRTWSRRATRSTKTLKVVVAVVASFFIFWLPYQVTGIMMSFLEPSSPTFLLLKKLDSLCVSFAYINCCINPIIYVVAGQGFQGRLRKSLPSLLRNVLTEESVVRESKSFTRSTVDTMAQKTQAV
Assay Notes: In vitro assay: PathHunter beta-arrestin antagonist assay in CHO-K1 C5AR1 beta-arrestin cell line, stimulated with C5a agonist
Protocol Conditions: read-out: C5aR IC50; CHO-K1 C5AR1 beta-arrestin cell line; 1-10 nM C5a agonist; geometric mean values
Value Kind: IC50 (nM)

Which IC50 is reported for this compound? COc1cccc(F)c1N1CC[C@H](N2Cc3ccccc3N(Cc3ccccc3C(F)(F)F)C2=O)C1 [Example 17]
437

(A) Cc1cccc(F)c1N1CCC(N2Cc3ccccc3N(Cc3ccccc3OCC#N)C2=O)CC1 [Example 55]
(B) COc1ccccc1CN1C(=O)N(C2CCN(c3c(C)cccc3C)CC2)Cc2ccccc21 [Example 36]
(C) Cc1cccc(F)c1N1CCC(N2Cc3ccccc3N(Cc3ccccc3C3CC3)C2=O)CC1 [Example 56]
Ordering: ascending IC50. As an answer, provide the labels arranged in the order called for.
C, B, A
(C: 28 nM, B: 199 nM, A: 512 nM)
